Target or system MAO-B (Homo sapiens); recorded quantity IC50.
*1 amine or outer side, *2 acyl side, *3 side chain or, on linkers, in order; H or OH if unused. Where a SMILES comes first, the peptide text is derived from it. [ ]: non-standard residue; d: D form. Lys((1R,2S)-2-Ph-cPr) = N[C@@H](CCCCN[C@@H]1C[C@H]1c1ccccc1)C(=O)O; X1 = O=C(C1(N[*:1])C2CC3CC(C2)CC1C3)[*:2]; Aib = CC(C)(N)C(=O)O

For this molecule ( C[C@H](N)C(=O)N[C@@H](CCCNC(=N)N)C(=O)N[C@H](C(=O)N[C@@H](CCCCN[C@@H]1C[C@H]1c1ccccc1)C(=O)N[C@@H](CCC(N)=O)C(=O)N[C@H](C(=O)N[C@@H](C)C(=O)N[C@@H](CCCNC(=N)N)C(=O)N[C@@H](CCCCN)C(=O)N[C@@H](CO)C(=O)N[C@H](C(=O)O)[C@@H](C)O)[C@@H](C)O)[C@@H](C)O [peptide 1, reference compound] ), measured IC50 is > 10 µM

The molecule C[C@H](N)C(=O)N[C@@H](CCCNC(=N)N)C(=O)NC1(C(=O)N[C@@H](CCCCN[C@@H]2C[C@H]2c2ccccc2)C(=O)NC2(C(=O)N[C@H](C(=O)N[C@@H](C)C(=O)N[C@@H](CCCNC(=N)N)C(=O)N[C@@H](CCCCN)C(=O)N[C@@H](CO)C(=O)N[C@H](C(=O)O)[C@@H](C)O)[C@@H](C)O)C3CC4CC(C3)CC2C4)C2CC3CC(C2)CC1C3 (stereo partly drawn) [2c] (H-AR[X1][Lys((1R,2S)-2-Ph-cPr)][X1]TARKST-OH; C-terminus assumed) showed IC50 equal to > 10 µM

IC50 reported for this molecule C[C@H](N)C(=O)N[C@@H](CCCNC(=N)N)C(=O)NC(C)(C)C(=O)N[C@@H](CCCCN[C@@H]1C[C@H]1c1ccccc1)C(=O)NC(C)(C)C(=O)N[C@H](C(=O)N[C@@H](C)C(=O)N[C@@H](CCCNC(=N)N)C(=O)N[C@@H](CCCCN)C(=O)N[C@@H](CO)C(=O)N[C@H](C(=O)O)[C@@H](C)O)[C@@H](C)O [peptide 2a] (H-AR[Aib][Lys((1R,2S)-2-Ph-cPr)][Aib]TARKST-OH; C-terminus assumed) : > 10 µM
